testSystem: human somatostatin receptor subtype 2 (Homo sapiens)
Construct: expressed in transfected cells
assay: Functional cAMP assay for SSTR2 agonists (HTRF) in CHO-K1 cells
Type: cell-based
conditionLabel: CHO-K1 cells stably expressing human SST2, 20 min; read-out: hSST2 cAMP Avg EC50
measuredProperty: EC50 (nM)
Your answer is read as nM, so omit the unit and give the number.

Enquiry: Provide human somatostatin receptor subtype 2 (Homo sapiens) EC50 reading for CC[C@H](C)[C@@H]([C@@H](CC(=O)N1CCC[C@H]1[C@H](OC)[C@@H](C)C(=O)N[C@H](C)[C@@H](O)c1ccccc1)OC)N(C)C(=O)[C@@H](NC(=O)[C@H](C(C)C)N(C)C(=O)OCc1ccc(NC(=O)[C@H](CCCNC(N)=O)NC(=O)[C@@H](NC(=O)CCCC(=O)N(C)CC(=O)N(C)CC(=O)N(C)CC(=O)N(C)CC(=O)N(C)CC(=O)NCCNc2ncc(-c3cc(C)cc(F)c3)c(N3CCC(N)CC3)c2-c2nc3ccc(Cl)cc3[nH]2)C(C)C)cc1)C(C)C .
Return: 0.3

###

testSystem: human somatostatin receptor subtype 2 (Homo sapiens)
Construct: expressed in transfected cells
assay: Functional cAMP assay for SSTR2 agonists (HTRF) in CHO-K1 cells
Assay type: cell-based
conditionLabel: hSST2 cAMP Avg EC50 (nM), CHO-K1 cells stably expressing human SST2, 20 min
Non-standard residues stand in square brackets, D forms with d. Residues, ends and D or L forms follow the SMILES beside them. *: point of attachment. X1 = Cc1cc(F)cc(-c2cnc(NCCNC(=O)CCOCCC(=O)*)c(-c3nc4ccc(Cl)cc4[nH]3)c2N2CCC(N)CC2)c1; Dolaproine = CO[C@@H]([C@@H]1CCCN1)[C@@H](C)C(=O)O; Dil = CC[C@H](C)[C@H](NC)[C@@H](CC(=O)O)OC; X2 = C[C@@H](N*)[C@@H](O)c1ccccc1; NMeV = CN[C@H](C(=O)O)C(C)C
measuredProperty: EC50 (nM)
Your answer is read as nM, so omit the unit and give the number.

Here is how some molecules turned out for EC50.
CC[C@@]1(O)C(=O)OCc2c1cc1n(c2=O)Cc2c-1nc1cc(F)c(C)c3c1c2[C@@H](NC(=O)OCc1ccc(NC(=O)[C@H](CCCNC(N)=O)NC(=O)[C@@H](NC(=O)CCOCCOCCOCCOCCC(=O)NCCNc2ncc(-c4cc(C)cc(F)c4)c(N4CCC(N)CC4)c2-c2nc4ccc(Cl)cc4[nH]2)C(C)C)cc1C(=O)NCCN)CC3 [Compound 91]: 0.18
CC[C@@]1(O)C(=O)OCc2c1cc1n(c2=O)Cc2c-1nc1cc(F)c(C)c3c1c2[C@@H](NC(=O)OCc1ccc(NC(=O)[C@H](CCCNC(N)=O)NC(=O)[C@@H](NC(=O)CCOCCC(=O)NCCNc2ncc(-c4cc(C)cc(F)c4)c(N4CCC(N)CC4)c2-c2nc4ccc(Cl)cc4[nH]2)C(C)C)c(O[C@@H]2O[C@H](C(=O)O)[C@@H](O)[C@H](O)[C@H]2O)c1)CC3 [Compound 73]: 0.49
CC[C@@]1(O)C(=O)OCc2c1cc1n(c2=O)Cc2c-1nc1cc(F)c(C)c3c1c2[C@@H](NC(=O)OCc1ccc(NC(=O)[C@H](CCCNC(N)=O)NC(=O)[C@@H](NC(=O)CCOCCOCCOCCOCCC(=O)NCCNc2ncc(-c4cc(C)cc(F)c4)c(N4CCC(N)CC4)c2-c2nc4ccc(Cl)cc4[nH]2)C(C)C)c(O[C@@H]2O[C@H](C(=O)O)[C@@H](O)[C@H](O)[C@H]2O)c1)CC3 [Compound 74]: 0.31
CC[C@@]1(O)C(=O)OCc2c1cc1n(c2=O)Cc2c-1nc1cc(F)c(C)c3c1c2[C@@H](NC(=O)OCc1ccc(NC(=O)[C@H](C)NC(=O)[C@@H](NC(=O)CCOCCC(=O)NCCNc2ncc(-c4cc(C)cc(F)c4)c(N4CCC(N)CC4)c2-c2nc4ccc(Cl)cc4[nH]2)C(C)C)c(O[C@@H]2O[C@H](C(=O)O)[C@@H](O)[C@H](O)[C@H]2O)c1)CC3 [Compound 65]: 0.27
CCc1c2c(nc3ccc(OC(=O)NCCOCCOCCOCCOCCC(=O)NCCNc4ncc(-c5cc(C)cc(F)c5)c(N5CCC(N)CC5)c4-c4nc5ccc(Cl)cc5[nH]4)cc13)-c1cc3c(c(=O)n1C2)COC(=O)[C@]3(O)CC [Compound 10]: 0.44

Query molecule follows.
Enquiry: Tell me EC50 reported for CC[C@H](C)[C@@H]([C@@H](CC(=O)N1CCC[C@H]1[C@H](OC)[C@@H](C)C(=O)N[C@H](C)[C@@H](O)c1ccccc1)OC)N(C)C(=O)[C@@H](NC(=O)[C@H](C(C)C)N(C)C(=O)CNC(=O)[C@H](Cc1ccccc1)NC(=O)CNC(=O)CNC(=O)CCOCCC(=O)NCCNc1ncc(-c2cc(C)cc(F)c2)c(N2CCC(N)CC2)c1-c1nc2ccc(Cl)cc2[nH]1)C(C)C [Compound 34] (X1-GGFG[NMeV]V[Dil][Dolaproine]-X2)
Return: 0.16

###

testSystem: human somatostatin receptor subtype 2 (Homo sapiens)
Construct: expressed in transfected cells
assay: Functional cAMP assay for SSTR2 agonists (HTRF) in CHO-K1 cells
Format: cell-based
conditionLabel: CHO-K1 cells stably expressing human SST2, 20 min; read-out: hSST2 cAMP Avg EC50
measuredProperty: EC50 (nM)
Your answer is read as nM, so omit the unit and give the number.

CC[C@H](C)[C@@H]([C@@H](CC(=O)N1CCC[C@H]1[C@H](OC)[C@@H](C)C(=O)N[C@H](C)[C@@H](O)c1ccccc1)OC)N(C)C(=O)[C@@H](NC(=O)[C@H](C(C)C)N(C)C(=O)OCc1ccc(NC(=O)[C@H](CCCNC(N)=O)NC(=O)[C@@H](NC(=O)[C@H](CCC(=O)O)NC(=O)CCOCCOCCOCCOCCC(=O)NCCNc2ncc(-c3cc(C)cc(F)c3)c(N3CCC(N)CC3)c2-c2nc3ccc(Cl)cc3[nH]2)C(C)C)c(O[C@@H]2O[C@H](C(=O)O)[C@@H](O)[C@H](O)[C@H]2O)c1)C(C)C: 0.21

Query compound follows.
Enquiry: Tell me EC50 reported for CC[C@H](C)[C@@H]([C@@H](CC(=O)N1CCC[C@H]1[C@H](OC)[C@@H](C)C(=O)N[C@H](C)[C@@H](O)c1ccccc1)OC)N(C)C(=O)[C@@H](NC(=O)[C@H](C(C)C)N(C)C(=O)OCc1ccc(NC(=O)[C@H](CCCNC(N)=O)NC(=O)[C@@H](NC(=O)[C@H](CCC(N)=O)NC(=O)CCOCCC(=O)NCCNc2ncc(-c3cc(C)cc(F)c3)c(N3CCC(N)CC3)c2-c2nc3ccc(Cl)cc3[nH]2)C(C)C)c(O[C@@H]2O[C@H](C(=O)O)[C@@H](O)[C@H](O)[C@H]2O)c1)C(C)C
Return: 0.28

###

testSystem: human somatostatin receptor subtype 2 (Homo sapiens, UniProt P30874)
Construct: expressed in transfected cells
Sequence (P30874 whole entry): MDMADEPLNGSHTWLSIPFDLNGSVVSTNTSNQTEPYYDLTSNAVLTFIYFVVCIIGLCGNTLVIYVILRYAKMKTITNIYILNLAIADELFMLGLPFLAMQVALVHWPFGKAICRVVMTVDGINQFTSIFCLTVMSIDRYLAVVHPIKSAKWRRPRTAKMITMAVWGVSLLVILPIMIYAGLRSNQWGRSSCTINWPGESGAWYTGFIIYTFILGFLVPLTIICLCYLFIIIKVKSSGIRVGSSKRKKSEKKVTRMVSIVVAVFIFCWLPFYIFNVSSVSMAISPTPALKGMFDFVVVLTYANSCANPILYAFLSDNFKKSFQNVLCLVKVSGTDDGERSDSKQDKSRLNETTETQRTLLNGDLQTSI
assay: Functional cAMP assay for SSTR2 agonists (HTRF) in CHO-K1 cells
Type: cell-based
conditionLabel: CHO-K1 cells stably expressing human SST2, 20 min; read-out: hSST2 cAMP Avg EC50
Starred links: 1 amine or outer side, 2 acyl side, 3 side chain; linkers in the order of their positions; H or OH if unused. Non-standard residues stand in square brackets, D forms with d. Residues, ends and D or L forms follow the SMILES beside them. *: point of attachment. X4 = Cc1cc(F)cc(-c2cnc(NCCNC(=O)CCOCCOCCOCCOCCC(=O)*)c(-c3nc4ccc(Cl)cc4[nH]3)c2N2CCC(N)CC2)c1; Dolaproine = CO[C@@H]([C@@H]1CCCN1)[C@@H](C)C(=O)O; Dil = CC[C@H](C)[C@H](NC)[C@@H](CC(=O)O)OC; PABC = O=C(OCc1ccc(N[*:1])cc1)[*:2]; X2 = C[C@@H](N*)[C@@H](O)c1ccccc1; Cit = NC(=O)NCCC[C@H](N)C(=O)O; NMeV = CN[C@H](C(=O)O)C(C)C
// EC50 lookup, one value per entry
Your answer is read as nM, so omit the unit and give the number.

Here is how some compounds turned out for EC50.
CC[C@H](C)[C@@H]([C@@H](CC(=O)N1CCC[C@H]1[C@H](OC)[C@@H](C)C(=O)N[C@H](C)[C@@H](O)c1ccccc1)OC)N(C)C(=O)[C@@H](NC(=O)[C@H](C(C)C)N(C)C(=O)OCc1ccc(NC(=O)[C@H](CCCNC(N)=O)NC(=O)[C@@H](NC(=O)CCOCCC(=O)NCCNc2ncc(-c3cc(C)cc(F)c3)c(N3CCC(N)CC3)c2-c2nc3ccc(Cl)cc3[nH]2)C(C)C)c(O[C@@H]2O[C@H](C(=O)O)[C@@H](O)[C@H](O)[C@H]2O)c1)C(C)C [Compound 61]: 0.11
Cc1cc(F)cc(-c2cnc(NCCNC(=O)CCOCCOCCOCCOCCOCCNC(=O)CN3CCN(CC(=O)O)CCN(CC(=O)O)CCN(CC(=O)O)CC3)c(-c3nc4cc(Cl)ccc4[nH]3)c2N2CCC(N)CC2)c1 [Comp. 1, reference compound]: 0.075
CC[C@H](C)[C@@H]([C@@H](CC(=O)N1CCC[C@H]1[C@H](OC)[C@@H](C)C(=O)N[C@H](C)[C@@H](O)c1ccccc1)OC)N(C)C(=O)[C@H](C)NC(=O)[C@H](C(C)C)N(C)C(=O)OCc1ccc(NC(=O)[C@@H](NC(=O)[C@@H](NC(=O)CCN(C)CCC(=O)NCCNc2ncc(-c3cc(C)cc(F)c3)c(N3CCC(N)CC3)c2-c2nc3ccc(Cl)cc3[nH]2)C(C)C)C(C)C)c(O[C@@H]2O[C@H](C(=O)O)[C@@H](O)[C@H](O)[C@H]2O)c1: 0.16
CC[C@H](C)[C@@H]([C@@H](CC(=O)N1CCC[C@H]1[C@H](OC)[C@@H](C)C(=O)N[C@H](C)[C@@H](O)c1ccccc1)OC)N(C)C(=O)[C@@H](NC(=O)[C@H](C(C)C)N(C)C(=O)OCc1ccc(NC(=O)[C@H](CCCNC(N)=O)NC(=O)[C@@H](NC(=O)[C@H](CCC(=O)O)NC(=O)CCOCCOCCOCCOCCC(=O)NCCNc2ncc(-c3cc(C)cc(F)c3)c(N3CCC(N)CC3)c2-c2nc3ccc(Cl)cc3[nH]2)C(C)C)cc1)C(C)C: 0.24
CC[C@H](C)[C@@H]([C@@H](CC(=O)N1CCC[C@H]1[C@H](OC)[C@@H](C)C(=O)N[C@H](C)[C@@H](O)c1ccccc1)OC)N(C)C(=O)[C@@H](NC(=O)[C@H](C(C)C)N(C)C(=O)OCc1ccc(NC(=O)[C@H](C)NC(=O)[C@@H](NC(=O)CCOCCNCCC(=O)NCCNc2ncc(-c3cc(C)cc(F)c3)c(N3CCC(N)CC3)c2-c2nc3ccc(Cl)cc3[nH]2)C(C)C)c(O[C@@H]2O[C@H](C(=O)O)[C@@H](O)[C@H](O)[C@H]2O)c1)C(C)C: 0.24

Enquiry: Tell me EC50 reported for COc1cc2cc(c1Cl)N(C)C(=O)C[C@H](OC(=O)[C@@H](C)N(C)C(=O)CCSSCCOCCOCCOCCC(=O)NCCNc1ncc(-c3cc(C)cc(F)c3)c(N3CCC(N)CC3)c1-c1nc3ccc(Cl)cc3[nH]1)[C@]1(C)OC1[C@@H](C)C1C[C@@](O)(NC(=O)O1)[C@H](OC)/C=C/C=C(\C)C2 (stereo partly shown)
Return: 0.44

Enquiry: Tell me EC50 reported for CC[C@H](C)[C@@H]([C@@H](CC(=O)N1CCC[C@H]1[C@H](OC)[C@@H](C)C(=O)N[C@H](C)[C@@H](O)c1ccccc1)OC)N(C)C(=O)[C@@H](NC(=O)[C@H](C(C)C)N(C)C(=O)OCc1ccc(NC(=O)[C@H](CCCNC(N)=O)NC(=O)[C@@H](NC(=O)[C@H](CCC(N)=O)NC(=O)[C@H](CCC(=O)O)NC(=O)CCOCCOCCOCCOCCC(=O)NCCNc2ncc(-c3cc(C)cc(F)c3)c(N3CCC(N)CC3)c2-c2nc3ccc(Cl)cc3[nH]2)C(C)C)cc1)C(C)C [Compound 119] (X4-EQV[Cit][PABC][NMeV]V[Dil][Dolaproine]-X2)
Return: 0.14

Enquiry: Tell me EC50 reported for CC[C@H](C)[C@@H]([C@@H](CC(=O)N1CCC[C@H]1[C@H](OC)[C@@H](C)C(=O)N[C@H](C)[C@@H](O)c1ccccc1)OC)N(C)C(=O)[C@@H](NC(=O)[C@H](C(C)C)N(C)C(=O)OCc1ccc(NC(=O)[C@H](CCCNC(N)=O)NC(=O)[C@@H](NC(=O)[C@H](CCC(N)=O)NC(=O)CCOCCC(=O)NCCNc2ncc(-c3cc(C)cc(F)c3)c(N3CCC(N)CC3)c2-c2nc3ccc(Cl)cc3[nH]2)C(C)C)cc1C(=O)NCCN)C(C)C
Return: 0.38

Enquiry: Tell me EC50 reported for CC[C@H](C)[C@@H]([C@@H](CC(=O)N1CCC[C@H]1[C@H](OC)[C@@H](C)C(=O)N[C@H](C)[C@@H](O)c1ccccc1)OC)N(C)C(=O)[C@@H](NC(=O)[C@H](C(C)C)N(C)C(=O)OCc1ccc(NC(=O)[C@H](CCCNC(N)=O)NC(=O)[C@@H](NC(=O)CCOCCOCCOCCOCCC(=O)NCCNc2ncc(-c3cc(C)cc(F)c3)c(N3CCC(N)CC3)c2-c2nc3ccc(Cl)cc3[nH]2)C(C)C)cc1C(=O)NCCNC(=O)CCOCCOCCOCCOCCN)C(C)C
Return: 0.26

Enquiry: Tell me EC50 reported for CC[C@H](C)[C@@H]([C@@H](CC(=O)N1CCC[C@H]1[C@H](OC)[C@@H](C)C(=O)N[C@H](C)[C@@H](O)c1ccccc1)OC)N(C)C(=O)[C@@H](NC(=O)[C@H](C(C)C)N(C)C(=O)OCc1ccc(NC(=O)[C@H](CCCNC(N)=O)NC(=O)[C@@H](NC(=O)[C@H](CS(=O)(=O)O)NC(=O)CCOCCOCCOCCOCCC(=O)NCCNc2ncc(-c3cc(C)cc(F)c3)c(N3CCC(N)CC3)c2-c2nc3ccc(Cl)cc3[nH]2)C(C)C)cc1)C(C)C
Return: 0.12
